- Test system: PXR homodimer (NR concentration 270 nM)
- Test protocol: PBM binding z-score (relative to random genomic background probes); higher = stronger binding; sequences stand for … in GC…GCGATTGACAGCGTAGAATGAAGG
PBM binding z-score vs 0.7: at or above is rule met, below is rule not met.

INSERT INTO results (biosequence, class_assignment) VALUES
  ('CCGACTGGGACATAAGGTTACCATAAGCCAGCCC', 'rule not met'),
  ('AAATGTAGGTTATCGGGTCATTCAGTTTGCGCAT', 'rule met'),
  ('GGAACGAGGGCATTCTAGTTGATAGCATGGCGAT', 'rule not met'),
  ('TCATATAGGTAAACAGGTGAGAGTCCGTAAGTTA', 'rule not met'),
  ('GTACCAAGGTGAATAGGGCGTTGATGAGTAGGCG', 'rule not met'),
  ('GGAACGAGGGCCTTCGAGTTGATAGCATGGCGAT', 'rule not met'),
  ('ACTTACGGGTCAACAAGGTTATAGCACGCGTATA', 'rule met'),
  ('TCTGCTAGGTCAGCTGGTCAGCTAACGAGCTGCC', 'rule not met'),
  ('CCTGCTAGGTCATGGTCAGATAATCTACAGTATG', 'rule not met'),
  ('TCTAGCAGGCCAGAGGGTCACTCACGAGGTACGG', 'rule not met'),
  ('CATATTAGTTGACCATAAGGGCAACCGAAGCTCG', 'rule not met'),
  ('TCTATTAGTTGACTAGGGCAACCGAAACAGCGGA', 'rule not met'),
  ('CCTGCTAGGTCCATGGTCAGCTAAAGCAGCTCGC', 'rule not met'),
  ('CTCGAAAGGTCGGTAGAGGTGAGTATACGGATAA', 'rule not met'),
  ('GATACAGGGTCAAGACCAGAGTACGCGTATTGAT', 'rule not met'),
  ('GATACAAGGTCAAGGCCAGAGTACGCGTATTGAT', 'rule met'),
  ('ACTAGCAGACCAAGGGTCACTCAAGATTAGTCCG', 'rule not met'),
  ('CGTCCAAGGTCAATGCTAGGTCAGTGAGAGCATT', 'rule met'),
  ('CCTACTAGGCCATTCAGAGGTCATTGATCATATG', 'rule met'),
  ('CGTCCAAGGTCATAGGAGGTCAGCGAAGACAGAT', 'rule met'),
  ('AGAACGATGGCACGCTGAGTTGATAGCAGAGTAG', 'rule not met'),
  ('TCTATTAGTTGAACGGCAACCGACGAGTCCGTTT', 'rule met'),
  ('TATACAGGGTCAAAGTCCAGAGTACGAATGTCGA', 'rule met'),
  ('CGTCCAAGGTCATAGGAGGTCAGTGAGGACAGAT', 'rule met'),
  ('ATTTACGGGTCAACGAGGTTATAGCACGCGTATA', 'rule met'),
  ('ATACCAAGGTGATCGTGAAGTCGTTGATACTAAC', 'rule not met'),
  ('CGAACTAGGTCATTGACAGGAGAGTGAATAGTAA', 'rule not met'),
  ('CAAACTAGGTCAGAACAGGACAGTGAAGGATGAT', 'rule not met'),
  ('ATATGTAGGTTACATCCGGGTCATTCAGGCTATG', 'rule met'),
  ('CGAACTAAGTCAAGGACAGTGAATCTCCGCACGC', 'rule not met'),
  ('AGAATGAGGTTATACGTAGATCAGGGATGAAAGT', 'rule not met'),
  ('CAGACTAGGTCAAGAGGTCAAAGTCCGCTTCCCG', 'rule met'),
  ('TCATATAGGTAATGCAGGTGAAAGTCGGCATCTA', 'rule not met'),
  ('CCTTAAGGGTCAAGGTTATAGCACGGGTGGTACG', 'rule not met'),
  ('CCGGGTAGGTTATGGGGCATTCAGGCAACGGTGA', 'rule not met');

Where these numbers come from: the supplement of paper PMC6555819
